# credit: paper PMC5412877

experimental_system: PCAF Brd (Homo sapiens, UniProt Q92831)
Construct: Human bromodomains were cloned, expressed and purified as previously described; made in house
Sequence (Q92831 723-827 limits assumed): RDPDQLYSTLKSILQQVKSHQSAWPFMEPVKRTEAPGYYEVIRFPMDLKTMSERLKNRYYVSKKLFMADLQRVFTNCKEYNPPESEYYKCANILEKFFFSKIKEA
measurement_description: Isothermal titration calorimetry (ITC), PCAF Brd
Assay type: binding
condition: Table 2; read-out: K D (nM) (ITC) PCAF Brd
reported_endpoint: Kd (nM)
Quick reminder: number only, in nM, skip the unit.

Some compounds with known Kd results, for comparison:
compound | observed_value
Cc1nnc2c3ccccc3c(N[C@@H](C)[C@H](c3ccccc3)N(C)C)nn12 [L‐45] | 126
Cc1nnc2c3ccccc3c(N[C@@H](C)[C@H](c3ccccc3)N(C)C)nn12 (relative stereo) [Compound 45] | 168
Cc1nnc2c3ccccc3c(N[C@@H](C)[C@H](c3ccc(C(F)(F)F)cc3)N(C)C)nn12 (relative stereo) [Compound 43] | 163

Entry under test: COC(=O)c1ccc([C@@H]([C@H](C)Nc2nn3c(C)nnc3c3ccccc23)N(C)C)cc1 [Compound 40] . Its Kd was 133

Value of measured Kd for the entry Cc1nnc2c3ccccc3c(N[C@@H](C)[C@H](c3ccc(Cl)cc3)N(C)C)nn12 [Compound 42] : 223

What the record says about Cc1ccc([C@@H]([C@H](C)Nc2nn3c(C)nnc3c3ccccc23)N(C)C)cc1 (relative stereo) [Compound 41] : Kd is 160

Looking up Cc1nnc2c3ccccc3c(N[C@@H](C)[C@H](c3ccc(F)cc3)N(C)C)nn12 (relative stereo) [Compound 39] , I found its Kd recorded as 195

Record COc1ccc([C@@H]([C@H](C)Nc2nn3c(C)nnc3c3ccccc23)N(C)C)cc1 [Compound 44] . Reported Kd: 179

###

measurement_description: Metabolic stability in mouse liver microsomes
Format: in vitro ADME
condition: mouse, liver microsomes; read-out: t1/2 mouse liver microsomes
Experimental: In vitro Metabolism Studies Metabolic stability studies were carried out exposing nominated compounds to samples of liver microsomes. Compounds were analysed by LC-MS for loss of compound at 0, 5, 15, 30 and 45 minute time points. The rate of metabolic degradation of compounds was used to calculate CLint, SE CLint, t1/2 (summarised in supplemental table 2.) Supplemental Table 4. […]
reported_endpoint: half-life (min)
Give the quantity in min, number only.

compound | reported_endpoint | observed_value
Cc1nnc2c3ccccc3c(N[C@@H](C)[C@H](c3ccccc3)N(C)C)nn12 | half-life | 38

Short answer for Cc1nnc2c3ccccc3c(N[C@@H](C)[C@H](c3ccc(F)cc3)N(C)C)nn12 (relative stereo) : half-life was 65

###

measurement_description: Permeability in MDCK-MDR1 cells
Assay type: in vitro ADME
condition: dog, MDCK-MDR1, first of 59/70; direction not given; read-out: MDCK-MDR1 permeability, first value of the pair
reported_endpoint: Papp
The answer should read as a number with its unit following.

Noted for `Cc1nnc2c3ccccc3c(N[C@@H](C)[C@H](c3ccccc3)N(C)C)nn12` : its Papp reads 59 ×10⁻⁶ cm/s

###

experimental_system: PCAF Brd (Homo sapiens)
Construct: Human bromodomains were cloned, expressed and purified as previously described; made in house
measurement_description: Differential scanning fluorimetry (DSF), PCAF Brd
Format: binding
condition: compound concentration 10 μM
Procedure: Protein Expression and Purification Human bromodomains were cloned, expressed and purified as previously described.[1] Differential Scanning Fluorimetry (DSF) Thermal melting points were recorded using an Mx3005p Real Time PCR Machine (Stratagene). Subject proteins were buffered in 10 mM HEPES at pH 7.5, 500 mM NaCl and assayed in a 96-well […] plate at a final concentration of 2 μM in 20 μL volume. […] fluorescence readings were taken at each interval. Data was analysed as previously described.[2] […]
# note: boundary value 3 °C maps to 0; ΔT m [°C] PCAF (DSF) below it maps to 1

Some solved cases for reference:
compound | discrete_label
CCC(CN(C)C)Nc1nn2c(C(F)(F)F)nnc2c2ccccc12 (stereo not shown) [Compound 88] | 1
CC(C)CC(CN(C)C)Nc1nn2c(C(F)(F)F)nnc2c2ccccc12 (stereo not shown) [Compound 86] | 1
C[C@@H](CN(C)C)Nc1nn2c(C(F)(F)F)nnc2c2ccccc12 [Compound (S)‐17] | 1
Cc1nnc2c3ccccc3c(NCC(C)N(C)C)nn12 (stereo not shown) [Compound 15] | 0
CCN(CC)CC(C)Nc1nn2c(C(F)(F)F)nnc2c2ccccc12 (stereo not shown) [Compound 90] | 1
Cc1nnc2c3ccccc3c(N[C@@H](C)[C@H](c3ccc(C(F)(F)F)cc3)N(C)C)nn12 (relative stereo) [Compound 43] | 0
CCC(CNc1nn2c(C(F)(F)F)nnc2c2ccccc12)N(C)C (stereo not shown) [Compound 89] | 1
Cc1nnc2c3ccccc3c(N[C@@H](C)[C@H](c3ccc(Cl)cc3)N(C)C)nn12 [Compound 42] | 0

Problem: A record lists Cc1nnc2c3ccccc3c(N[C@@H](C)[C@H](O)c3ccccc3)nn12 [Compound 77] . Is its ΔT m [°C] PCAF (DSF) below 3 °C?
Result: 1

Problem: ΔT m [°C] PCAF (DSF) strictly < 3 °C for this compound? CCC(CN(C)C)Nc1nn2c(C)nnc2c2ccccc12 (stereo not shown) [Compound 12]
Result: 0

Problem: Decide: ΔT m [°C] PCAF (DSF) of Cc1nnc2c3ccccc3c(NCC3CCCCN3C)nn12 (stereo not shown) [Compound 60] strictly below 3 °C?
Result: 1

Problem: Threshold test, ΔT m [°C] PCAF (DSF) < 3 °C: CN(C)[C@H]1CCCC[C@@H]1Nc1nn2c(C(F)(F)F)nnc2c2ccccc12 [Compound 83]
Result: 1

Problem: Decide: ΔT m [°C] PCAF (DSF) of Cc1nnc2c3ccccc3c(N[C@@H](C)CN(C)C)nn12 [(S)‐11] strictly below 3 °C?
Result: 0

Problem: Consider Cc1nnc2c3ccccc3c(NCC3CCCOC3)nn12 (stereo not shown) [Compound 99] . Does its ΔT m [°C] PCAF (DSF) lie strictly below 3 °C?
Result: 0

Problem: Criterion: ΔT m [°C] PCAF (DSF) strictly below 3 °C. Is it met by Cc1nnc2c3ccccc3c(N[C@@H]3CCCN(Cc4ccccc4)C3)nn12 [Compound 64] ?
Result: 1

Problem: Say whether its ΔT m [°C] PCAF (DSF) is strictly beneath 3 °C. Entry: COc1cccc(N2CC(Nc3nn4c(C)nnc4c4ccccc34)CC2=O)c1 (stereo not shown) [Compound 57]
Result: 1

Problem: Regarding Cc1nnc2c3ccccc3c(N[C@H]3C[C@@H]4CC[C@H]3C4)nn12 [Compound 61] , kindly confirm whether its ΔT m [°C] PCAF (DSF) is beneath 3 °C.
Result: 1

Problem: Answer whether the compound Cc1nnc2c3ccccc3c(NC3CCCN(C)C3=O)nn12 (stereo not shown) [Compound 50] has ΔT m [°C] PCAF (DSF) strictly less than 3 °C
Result: 1

Problem: For the compound Cc1nnc2c3ccccc3c(NCC(c3ccccc3)N(C)C)nn12 (stereo not shown) [Compound 10] , is ΔT m [°C] PCAF (DSF) under 3 °C?
Result: 1

###

Listing of recorded ΔT m [°C] PCAF (DSF) by entry.
experimental_system: PCAF Brd (Homo sapiens)
Construct: Human bromodomains were cloned, expressed and purified as previously described; made in house
measurement_description: Differential scanning fluorimetry (DSF), PCAF Brd
Assay type: binding
condition: compound concentration 10 μM
Provide only the numeric value, understood in °C.

Here's what some known entries look like.
compound | units_of_measure | ΔT m [°C] PCAF (DSF)
Cc1nnc2c3ccccc3c(N[C@H]3CCC[C@@H]3N(C)C)nn12 [Compound 76] | °C | 7.3
Cc1nnc2c3ccccc3c(NCCCCN(C)C)nn12 [Compound 9] | °C | 0.9
Cc1nnc2c3ccccc3c(NC(CO)c3ccccc3)nn12 (stereo not shown) [Compound 51] | °C | 1.0

// switching to the query compound
ΔT m [°C] PCAF (DSF) for CCN1CCCCC1CNc1nn2c(C)nnc2c2ccccc12 (stereo not shown) [Compound 63] is 0.2

###

experimental_system: PCAF Brd (Homo sapiens, UniProt Q92831)
Construct: Human bromodomains were cloned, expressed and purified as previously described; made in house
measurement_description: Isothermal titration calorimetry (ITC), PCAF Brd
Assay type: binding
condition: Table 1; read-out: K D [μM] (ITC) PCAF Brd
Some compounds, each annotated with its measured log10(Kd).
// units: µM (pre-log); metric: Kd; scale: log10

Solved cases below.
compound | log10(Kd)
Cc1nnc2c3ccccc3c(NCC(C)N(C)C)nn12 (stereo not drawn) | 0.86
CCC(CNc1nn2c(C)nnc2c2ccccc12)N(C)C (stereo not drawn) | 0.84
Cc1nnc2c3ccccc3c(NC(C)CN(C)C)nn12 (stereo not drawn) | -0.52
CCC(CN(C)C)Nc1nn2c(C)nnc2c2ccccc12 (stereo not drawn) | 0.26
Cc1nnc2c3ccccc3c(NCCN(C)C)nn12 | 0.90
Cc1nnc2c3ccccc3c(N[C@@H](C)CN(C)C)nn12 [(S)‐11] | -0.55

Attention now turns to another entry.
Field log10(Kd) (system: PCAF Brd (Homo sapiens, UniProt Q92831)) for entry Cc1nnc2c3ccccc3c(NCC(c3ccccc3)N(C)C)nn12 (stereo not drawn) = 0.00
